biological target: human α4β2 (Homo sapiens, UniProt P17787+P43681); construct: host or cells: SH-EP1; experiment: Calcium flux functional assay, inhibition of nicotine response in SH-EP1-human α4β2 cells; format: cell-based; conditions: 29C/HS (29° C.-treated SH-EP1-human α4β2 cells), nicotine 1 μM; read-out: Human α4β2 Ca Flux IC50 [29C/HS]
Sequence (P43681 29-627 limits assumed): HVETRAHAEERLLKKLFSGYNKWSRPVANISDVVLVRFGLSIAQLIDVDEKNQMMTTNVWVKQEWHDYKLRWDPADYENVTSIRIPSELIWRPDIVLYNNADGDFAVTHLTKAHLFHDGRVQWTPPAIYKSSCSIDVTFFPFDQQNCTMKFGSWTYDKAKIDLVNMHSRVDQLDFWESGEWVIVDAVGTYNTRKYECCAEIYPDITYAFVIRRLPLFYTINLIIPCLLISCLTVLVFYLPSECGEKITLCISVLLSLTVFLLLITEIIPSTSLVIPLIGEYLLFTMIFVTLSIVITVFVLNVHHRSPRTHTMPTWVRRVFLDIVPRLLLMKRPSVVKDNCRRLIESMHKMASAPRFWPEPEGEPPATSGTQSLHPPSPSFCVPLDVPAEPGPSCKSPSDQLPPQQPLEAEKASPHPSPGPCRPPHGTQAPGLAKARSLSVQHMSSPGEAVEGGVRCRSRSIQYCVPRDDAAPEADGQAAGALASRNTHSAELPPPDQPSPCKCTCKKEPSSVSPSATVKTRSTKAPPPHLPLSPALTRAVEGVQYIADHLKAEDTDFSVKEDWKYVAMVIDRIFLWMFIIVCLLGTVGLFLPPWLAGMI
Sequence (P17787 26-502): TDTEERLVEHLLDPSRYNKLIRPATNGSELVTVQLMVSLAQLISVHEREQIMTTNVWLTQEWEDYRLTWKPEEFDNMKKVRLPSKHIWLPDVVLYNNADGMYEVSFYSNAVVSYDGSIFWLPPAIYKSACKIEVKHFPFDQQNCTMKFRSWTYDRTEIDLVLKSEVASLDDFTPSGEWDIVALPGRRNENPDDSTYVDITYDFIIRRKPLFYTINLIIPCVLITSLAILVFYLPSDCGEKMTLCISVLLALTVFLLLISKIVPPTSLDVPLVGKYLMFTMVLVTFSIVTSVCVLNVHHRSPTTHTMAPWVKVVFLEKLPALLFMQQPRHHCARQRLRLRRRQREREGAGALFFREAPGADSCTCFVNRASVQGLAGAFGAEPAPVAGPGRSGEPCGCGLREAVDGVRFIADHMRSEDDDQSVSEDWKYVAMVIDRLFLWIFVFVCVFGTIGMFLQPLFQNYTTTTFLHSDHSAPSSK
measuredAttribute: pIC50
Here pIC50 is given on a logarithmic scale as minus log10 of the concentration in mol/L.

Worked set:
[
  {
    "compound": "CN(C)C1C2CCC(C2)C12CCC2 (stereo not drawn)",
    "pIC50": 5.74
  },
  {
    "compound": "C1CCN(C2C3CCC(C3)C23CCC3)C1 (stereo not drawn)",
    "pIC50": 5.85
  },
  {
    "compound": "CN(C)C1C2(CCC2)[C@@H]2CC[C@@]1(C)C2(C)C (stereo partly drawn) [drawing 38]",
    "pIC50": 6.13
  }
]

-- ask What value of measured pIC50 is listed for CNC1C2(CCC2)[C@@H]2CC[C@@]1(C)C2(C)C (stereo partly drawn) [drawing 33] ?
-- reply 6.00

Just for reference, patent US10716770B2 is where these values come from.
